Give Ratio for every item shown.
Tested on: Haemophilus influenzae
Experiment: Ratio of MBC to MIC against azithromycin-susceptible Haemophilus influenzae ATCC 49247
Assay type: functional
Respond with the number and no other words.

Field Ratio (entry CC[C@H]1OC(=O)[C@H](C)[C@@H](OC(=O)Cc2ccccn2)[C@H](C)[C@@H](O[C@@H]2O[C@H](C)C[C@H](N(C)C)[C@H]2O)[C@](C)(OC(=O)CCNCCC#Cc2ccc3ncccc3c2)C[C@@H](C)CN(C)[C@H](C)[C@@H](O)[C@]1(C)O ) reads 2

Field Ratio (entry CC[C@H]1OC(=O)[C@H](C)[C@@H](OC(=O)Cc2ccccn2)[C@H](C)[C@@H](O[C@@H]2O[C@H](C)C[C@H](N(C)C)[C@H]2O)[C@](C)(OC(=O)CCNCCC#Cc2ccc3c(c2)c(=O)c(C(N)=O)cn3C)C[C@@H](C)CN(C)[C@H](C)[C@@H](O)[C@]1(C)O ) reads 2

Field Ratio (entry CC[C@H]1OC(=O)[C@H](C)[C@@H](OC(=O)Cc2ccccn2)[C@H](C)[C@@H](O[C@@H]2O[C@H](C)C[C@H](N(C)C)[C@H]2O)[C@](C)(OC(=O)CCNCCC#Cc2ccc3c(c2)c(=O)c(C(=O)NC)cn3C2CC2)C[C@@H](C)CN(C)[C@H](C)[C@@H](O)[C@]1(C)O ) reads 2

Field Ratio (entry CC[C@H]1OC(=O)[C@H](C)[C@@H](OC(=O)Cc2ccccn2)[C@H](C)[C@@H](O[C@@H]2O[C@H](C)C[C@H](N(C)C)[C@H]2O)[C@](C)(OC(=O)CCN2CCN(c3c(F)cc4c(=O)c(C(N)=O)cn(C5CC5)c4c3OC)CC2C)C[C@@H](C)CN(C)[C@H](C)[C@@H](O)[C@]1(C)O (stereo partly specified) ) reads 1

Field Ratio (entry CC[C@H]1OC(=O)[C@H](C)[C@@H](OC(=O)Cc2ccccn2)[C@H](C)[C@@H](O[C@@H]2O[C@H](C)C[C@H](N(C)C)[C@H]2O)[C@](C)(OC(=O)CCNCCC#Cc2ccc3c(c2)c(=O)c(C(=O)O)cn3C2CC2)C[C@@H](C)CN(C)[C@H](C)[C@@H](O)[C@]1(C)O ) reads 2

Field Ratio (entry CC[C@H]1OC(=O)[C@H](C)[C@@H](O[C@H]2C[C@@](C)(OC)[C@@H](O)[C@H](C)O2)[C@H](C)[C@@H](O[C@@H]2O[C@H](C)C[C@H](N(C)C)[C@H]2O)[C@](C)(O)C[C@@H](C)CN(C)[C@H](C)[C@@H](O)[C@]1(C)O [AZITHROMYCIN] ) reads 4
